Just for reference, paper PMC5581522 is where these values come from.

# experiment_summary: Plasma pharmacokinetics, cycle 1 day 1, noncompartmental
# Type: in vivo, Japanese patients
# experimental_conditions: human, plasma; 200 mg oral, cycle 1 day 1, n = 4; mean ± SD

# smi, Cmax (µg/mL)
rows = [
    ("C[C@]1(c2nc3c(C(N)=O)cccc3[nH]2)CCCN1", 2.06),
]

====

# experiment_summary: Plasma pharmacokinetics, cycle 1 day 1, noncompartmental
# Assay type: in vivo, Japanese patients
# experimental_conditions: human, plasma; 400 mg oral, cycle 1 day 1, n = 9; harmonic mean ± pseudo SD

# smi, half-life (h)
rows = [
    ("C[C@]1(c2nc3c(C(N)=O)cccc3[nH]2)CCCN1", 4.6),
]
